# Tested on: T47D cells
# Test protocol: Cellular growth inhibition assay for T47D cells
# Type: cell-based
# Measurement context: Homo sapiens, 72 hours, CellTiter-Glo 2.0
So I've got a bunch of molecules here, and I need their GI50 values.

# annotated cases, reported GI50 shown
Molecule: CCc1cnn2c(NCc3ccc(OCCN4CCN(CC5CCN(c6ncc(C(=O)N[C@H]7C(C)(C)[C@H](Oc8ccc(C#N)c(Cl)c8)C7(C)C)cn6)CC5)CC4)nc3)cc(N3CCCC[C@H]3CCO)nc12 [Compound I-41]
GI50: < 500 nM
--
Molecule: CCc1cnn2c(NCc3ccc(OCCCN4CCN(CC5CCN(c6ncc(C(=O)N[C@H]7C(C)(C)[C@H](Oc8ccc(C#N)c(Cl)c8)C7(C)C)cn6)CC5)CC4)nc3)cc(N3CCCCC3)nc12 [Compound I-50]
GI50: > 3000 nM
--
Molecule: COc1cc(F)ccc1-c1ccnc2[nH]c(C3CCN(CCOCCOCCOC4CCN(c5ncc(C(=O)N[C@H]6C(C)(C)[C@H](Oc7ccc(C#N)c(Cl)c7)C6(C)C)cn5)CC4)CC3)cc12 [Compound I-67]
GI50: 1500 to 3000 nM
--
Molecule: CC(C)n1cc(-c2ccnc3[nH]c(C4CCN(CCOCCOCCOC5CCN(c6ncc(C(=O)N[C@H]7C(C)(C)[C@H](Oc8ccc(C#N)c(Cl)c8)C7(C)C)cn6)CC5)CC4)cc23)ccc1=O [Compound I-77]
GI50: 500 to 1500 nM
--
Molecule: CCc1cnn2c(NCc3ccc(OCCCN4CCN(CC5CCN(c6ccc(C(=O)N[C@H]7C(C)(C)[C@H](Oc8ccc(C#N)c(Cl)c8)C7(C)C)cc6)CC5)CC4)nc3)cc(N3CCCC[C@@H]3CCO)nc12 [II-1]
GI50: < 500 nM
--
Molecule: Cc1ncc(-c2nc(Nc3ccc(C(=O)N4CC[C@H](N(C)CCOCCOCCOC5CCN(c6ncc(C(=O)N[C@H]7C(C)(C)[C@H](Oc8ccc(C#N)c(Cl)c8)C7(C)C)cn6)CC5)C4)cc3)ncc2F)n1C(C)C [Compound I-96]
GI50: 1500 to 3000 nM
--
Molecule: CC(C)n1cc(-c2ccnc3[nH]c(C4CCN(CCN5CCN(CC6CCN(c7ncc(C(=O)NC8C(C)(C)C(Oc9ccc(C#N)c(Cl)c9)C8(C)C)cn7)CC6)CC5)CC4)cc23)ccc1=O (centres unmarked) [Compound I-74]
GI50: < 500 nM

// sample CC1(C)[C@H](NC(=O)c2cnc(N3CCC(OCCOCCOCCN4C/C=C/CCOc5cccc(c5)-c5ccnc(n5)Nc5cccc(c5)C4)CC3)nc2)C(C)(C)[C@H]1Oc1ccc(C#N)c(Cl)c1 [Compound I-89] , its GI50 was > 3000 nM
